# test.details: Primary qHTS to identify inhibitors of SARS-CoV-2 cell entry (AID 1645846); also: nearly all actives have a fitted effect of over 45% in size
# applied.conditions: SARS-CoV-2 pseudovirus cell entry assay, luminescence; at 57.1 µM (top of the series) unless noted
Records with an inconclusive call do not appear.
observable: activity change, negative = inhibition (%)
The answer is to be given in %; state only the numeric part.

Consider the following illustrative entries.
[[record]]
compound = "O=C(Nc1ccc2c(c1)CCN(Cc1ncn[nH]1)C2)c1ccccc1-c1ccc(C(F)(F)F)cc1"
value = -32.8

[[record]]
compound = "CC(=O)CCC1C(=O)N(c2ccccc2)N(c2ccccc2)C1=O"
value = -21

[[record]]
compound = "CC(=O)N1CCN(CCOc2ccc(C3CCN(C4=Nn5c(nnc5C(F)(F)F)CC4)CC3)cc2)CC1"
value = -91.8

[[record]]
compound = "CC(COc1ccc(Oc2ccccc2)cc1)Oc1ccccn1 (stereo unspecified)"
value = -5.43


-- ask Return reported activity change, negative = inhibition; argument: "Cc1cnc(NC(=O)c2cc(Oc3cnc(C(=O)N(C)C)nc3)c3cc(C)oc3c2)cn1"
-- reply -4.66

-- ask Return reported activity change, negative = inhibition; argument: "CCCCC[C@H](O)/C=C/[C@@H]1[C@@H](C/C=C/CCCC(=O)O)[C@@H](O)C[C@H]1O"
-- reply -6.41

-- ask Return reported activity change, negative = inhibition; argument: "CC(=O)O[C@H]1CC[C@@]2(C)C(=CC[C@H]3[C@@H]4CC[C@H](C(C)=O)[C@@]4(C)CC[C@@H]32)C1"
-- reply -16.3

-- ask Return reported activity change, negative = inhibition; argument: "COC(=O)/C=C/C(=O)OC"
-- reply -4.67

-- ask Return reported activity change, negative = inhibition; argument: C[C@]12C=CC(=O)C=C1CCC1C2[C@@H](O)C[C@@]2(C)C1CC[C@]2(O)C(=O)COC(=O)CCC(=O)O (stereo partly specified)
-- reply -21.3

* * *

# System: ECU
# test.details: qHTS profiling for inhibitors of Plasmodium falciparum proliferation (AID 504749); also: nearly all actives have a fitted effect of over 60% in size
# applied.conditions: P. falciparum in erythrocytes, SYBR Green DNA, 72 h; series mostly up to 28.7 µM
Results filed as inconclusive are left out. Active and inactive are the calls of the source. Calls follow the shape of the dose curve; as a rule, active = well fitted inhibition curve with a large enough effect; inconclusive = small, poorly fitted or top-dose-only effect; inactive = flat fitted curve, though single readings scatter.
Your reply should match one of these outcome classes. yes = active, no = inactive

Solved entries:
[[record]]
compound = "O=[As]O[As]=O (stereo unspecified)"
target = "ECU"
label = "yes"

[[record]]
compound = "CCNC[C@H](O)c1cccc(O)c1"
target = "ECU"
label = "no"

[[record]]
compound = "CC1=C2[C@@H]3OC(=O)[C@@H](C)[C@@H]3CC[C@]2(C)C=CC1=O"
target = "ECU"
label = "no"


-- ask Tell me the assay call for "COc1cc(N)c(Cl)cc1C(=O)N[C@@H]1CN2CCC1CC2" please.
-- reply no

-- ask Tell me the assay call for COc1cc2c(cc1OC)[C@@]13CCN4CC5=CCOC6CC(=O)N2C1[C@H]6[C@@H]5C[C@@H]43 (stereo partly specified) please.
-- reply no

-- ask Tell me the assay call for CNC(C)[C@@H](O)c1ccc(O)cc1 (stereo partly specified) please.
-- reply no

* * *

# test.details: MultiTox-Fluor Cytotoxicity Assay - LYMP1-001 - Dead Cells (AID 946);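 also: cells exposed to compound for 16 h; 0% = DMSO and 100% = tetraoctylammonium bromide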
# applied.conditions: LYMP1-001 lymphoblastoid cells, dead-cell protease fluorescence; series mostly up to 92.2 µM
Results filed as inconclusive are left out. The source made the active and inactive calls. Calls follow the shape of the dose curve; as a rule, active = well fitted cell-killing curve with a large enough effect; inconclusive = small, poorly fitted or top-dose-only effect, or effect the other way; inactive = flat fitted curve, though single readings scatter.
Your reply should match one of these outcome classes. active, inactive

Solved entries:
[[record]]
compound = "CCOc1ccc(N)cc1"
label = "inactive"

[[record]]
compound = "CN=C=S"
label = "inactive"


-- ask Tell me the assay call for "O=[N+]([O-])c1cccc2ccccc12" please.
-- reply inactive

-- ask Tell me the assay call for "Nc1ccc(Br)cc1" please.
-- reply inactive

-- ask Tell me the assay call for C=CC1CC=CCC1 (stereo not given) please.
-- reply inactive

-- ask Tell me the assay call for "CC(C)(OO)c1ccccc1" please.
-- reply inactive

-- ask Tell me the assay call for "C=CCOC(C)=O" please.
-- reply inactive

-- ask Tell me the assay call for "c1nc[nH]n1" please.
-- reply inactive

-- ask Tell me the assay call for "Cc1cccc(C#N)c1" please.
-- reply inactive

-- ask Tell me the assay call for "Brc1ccccc1" please.
-- reply inactive

* * *

# test.details: Cell Viability - BJ (AID 421);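 also: potency is read from the fitted curve at half-maximal effect; cells exposed to compound for 40 hours at 37 °C before readout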
# applied.conditions: BJ fibroblast viability, qHTS
Records with an inconclusive call do not appear. Active and inactive are the calls of the source. Calls come from the whole dose curve.
Potency: recorded values

Consider the following illustrative entries.
[[record]]
compound = "C=CC1CC=CCC1 (stereo unspecified)"
observable = "Potency"
value = "> 92 µM (inactive)"

[[record]]
compound = "CC(C)(OO)c1ccccc1"
observable = "Potency"
value = "> 92 µM (inactive)"

[[record]]
compound = "CCOc1ccc(N)cc1"
observable = "Potency"
value = "> 92 µM (inactive)"

[[record]]
compound = "CCCCOC(=O)c1ccccc1C(=O)OCCCC"
observable = "Potency"
value = "> 92 µM (inactive)"

[[record]]
compound = "O=C=NC1CCCCC1"
observable = "Potency"
value = "> 92 µM (inactive)"

[[record]]
compound = "CNC(=O)O/N=C/C(C)(C)SC"
observable = "Potency"
value = "> 92 µM (inactive)"

[[record]]
compound = "O=C(Cl)/C=C/C(=O)Cl"
observable = "Potency"
value = "> 92 µM (inactive)"

[[record]]
compound = "c1ccc(OP(Oc2ccccc2)Oc2ccccc2)cc1"
observable = "Potency"
value = "> 92 µM (inactive)"


-- ask Return reported Potency; argument: "CCNc1nc(Cl)nc(NC(C)C)n1"
-- reply > 92 µM (inactive)

-- ask Return reported Potency; argument: "N#CCCCl"
-- reply > 92 µM (inactive)

-- ask Return reported Potency; argument: "ClC(Cl)=C(c1ccc(Cl)cc1)c1ccc(Cl)cc1"
-- reply > 92 µM (inactive)

* * *

# test.details: Cytotoxicity counterscreen for inhibitors of SARS-CoV-2 cell entry (AID 1645845); also: nearly all actives have a fitted effect of over 50% in size
# applied.conditions: cell viability (SARS-CoV-2 entry assay cells); series mostly up to 57.1 µM
Results filed as inconclusive are left out. Active and inactive are the calls of the source. Calls follow the shape of the full dose curve.
Your reply should match one of these outcome classes. active, inactive

Solved entries:
[[record]]
molecule = "COc1cc2c(cc1OCCCN1CCCC1)N=C(N)C21CCC1"
label = "inactive"

[[record]]
molecule = "CNC[C@@H]1CC[C@@H](N)[C@@H](O[C@H]2[C@H](O)[C@@H](O[C@H]3OC[C@](C)(O)[C@H](NC)[C@H]3O)[C@H](N)C[C@@H]2N)O1"
label = "inactive"

[[record]]
molecule = "NCCCC(N)C(=O)O (stereo unspecified)"
label = "inactive"


-- ask Tell me the assay call for "CCCCCCCCCCCCCCCC(=O)OC[C@@H](O)[C@H]1OC[C@H](O)[C@H]1O" please.
-- reply inactive

* * *

# test.details: OV-SAHO Cancer Cell Toxicity qHTS against the NCATS CANVASS Library (AID 1347348); also: nearly all actives have a fitted effect of over 55% in size
# applied.conditions: OV-SAHO viability, CellTiter-Glo luminescence, 72 h; series mostly up to 38.3 µM
Inconclusive results are not listed. Active and inactive are the calls of the source. Calls come from the whole dose curve; as a rule, active = well fitted cell-killing curve with a large enough effect; inconclusive = small, poorly fitted or top-dose-only effect; inactive = flat fitted curve, though single readings scatter.
Your reply should match one of these outcome classes. y for active, n for inactive

[[record]]
compound = "CCCC[C@@H](C)/C=C1/CN2CCC[C@H]2[C@@](C)(O)[C@@H]1O"
label = "n"


-- ask Tell me the assay call for "CC[C@@H]1CN2CCc3c([nH]c4cccc(OC)c34)[C@@H]2C[C@@H]1/C(=C\OC)C(=O)OC" please.
-- reply y

-- ask Tell me the assay call for "CO[C@@H](/C=C/CC/C=C/C(=O)O)[C@@H](O)[C@H](C)/C=C(\C)[C@H](O)[C@H](C)C(=O)CCCC1CC(=O)NC(=O)C1" please.
-- reply n

-- ask Tell me the assay call for "C=C(C)[C@H]1C(=O)c2c3c(cc4c5c(n1c24)[C@@]1(C)[C@@H](CC[C@H]2[C@](C)(/C=C/C=C(\C)C(=O)O)[C@@H](O)CC[C@@]21C)C5)C1=CC(C)(C)OC(C)(C)[C@H]1[C@@H]3O" please.
-- reply y

-- ask Tell me the assay call for CO[C@H]1C[C@H](O[C@H]2[C@@H](O)C[C@H](O[C@H]3CC[C@]4(C=O)[C@H]5CC[C@]6(C)C(C7=CC(=O)OC7)CC[C@]6(O)[C@@H]5CC[C@]4(O)C3)O[C@@H]2C)O[C@H](C)[C@H]1O[C@H]1C[C@@H](OC)[C@@H](O[C@@H]2O[C@H](CO)[C@@H](O)[C@H](O)[C@H]2O)[C@@H](C)O1 (stereo not given in full) please.
-- reply n

* * *

# test.details: qHTS profiling for inhibitors of Plasmodium falciparum proliferation (AID 504749); also: nearly all actives have a fitted effect of over 60% in size;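 as to activity, negative = inhibition: 0% = DMSO vehicle and full inhibition = artemisinin control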
# applied.conditions: P. falciparum in erythrocytes, SYBR Green DNA, 72 h; at 12.8 µM (top of the series); parasite line A
Inconclusive results are not listed. The source made the active and inactive calls. Calls follow the shape of the dose curve; as a rule, active = well fitted inhibition curve with a large enough effect; inconclusive = small, poorly fitted or top-dose-only effect; inactive = flat fitted curve, though single readings scatter.
activity, negative = inhibition: recorded values

Consider the following illustrative entries.
[[record]]
compound = "Clc1ccc([C@@H](OCCN2CCCCC2)c2ccccc2)cc1"
value = "-2.83% (inactive)"

[[record]]
compound = "C[C@H]1CN(C2CCC(C#N)(c3ccc(F)cc3)CC2)CC[C@@]1(C(=O)O)c1ccccc1 (some centres undefined)"
value = "1.54% (inactive)"

[[record]]
compound = "CC[C@]1(c2cccc(O)c2)CCCCN(C)C1"
value = "-7.81% (inactive)"

[[record]]
compound = "C[C@@]12CC[C@H]3[C@@H](CC[C@@H]4C[C@H]5S[C@H]5C[C@]43C)[C@H]1CC[C@H]2O"
value = "2.41% (inactive)"


Okay, now this compound:
-- ask Return reported activity, negative = inhibition; argument: "O=c1ccc2cc(O[C@H]3O[C@@H](CO)[C@@H](O)[C@@H](O)[C@@H]3O)c(O)cc2o1"
-- reply 3.87% (inactive)

Cited source: PubChem BioAssay (NCATS)
